// reported ED80 (ppm) SEPTTR-184 1DP for each item listed
- System: Zymoseptoria tritici (SEPTTR-184)
- method: Cyp51 dsRNA tile (fragment) foliar application bioassay (Example 6)
- Format: in vivo
- assay.setup: 1 day protectant; calculated from disease control
- Description: The 200 ppm concentration for each treatment was prepared by adding the calculated volume of the corresponding dsRNA solution in TE buffer. […] A non-target dsRNA control (YFP), a TE/phosphate buffer control, disease pressure control, and clean plant control were included. These plants were inoculated with an aqueous spore suspension of Zymoseptoria tritici either prior to or after fungicidal treatments. […]

molecule	ED80 (ppm) SEPTTR-184 1DP
MgCyp51-T3: dsRNA tile of Zymoseptoria tritici Cyp51, 230 bp, location 450-679 (nucleic acid, listed as Zymoseptoria tritici) CGTCAAGTACGGCCTCACAACCTCTGCCCTCCAGTCCTACGTGACCTTGATCGCCGCCGAGACCCGCCAGTTCTTCGACCGCAACAACCCTCATAAGAAGTTCGCATCGACCAGCGGCACGATCGATCTCCCACCAGCCCTCGCCGAACTTACGATCTATACTGCCAGCCGATCATTGCAAGGAAAGGAAGTCCGCGAGGGCTTCGACTCGTCTTTCGCGGACCTCTACC	>200 ppm

Shift focus to the following entry.
Incoming: Sample MgCyp51-T8: dsRNA tile of Zymoseptoria tritici Cyp51, 242 bp, location 1151-1392 (nucleic acid, listed as Zymoseptoria tritici) TTCTGCGCAAGGTCAAGTCTCCCATGCCCATCGAAGGTACGGCATACGTCATTCCAACCACCCACACTCTTCTGGCCGCTCCGGGCACAACGAGCCGCATGGACGAGCACTTTCCCGACTGCCTCCATTGGGAGCCGCATCGATGGGACGAGAGCCCGTCCGAGAAATACAAGCACCTGTCCCCGACGACTGCCCTAGGAAGCATCGCCGAGGAGAAAGAAGACTATGGCTACGGCCTGGTA — what was its ED80 (ppm) SEPTTR-184 1DP?
Outgoing: >200 ppm
